B1: TPR t1 (parent)
chain: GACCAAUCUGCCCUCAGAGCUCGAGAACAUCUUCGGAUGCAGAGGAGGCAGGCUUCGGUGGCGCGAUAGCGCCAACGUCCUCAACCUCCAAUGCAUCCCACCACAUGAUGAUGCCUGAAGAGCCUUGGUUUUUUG

# Variants of: B1
# protocolText: polymerase ribozyme fitness, log enrichment relative to wild type (log ratio); higher = more active; in vitro selection for triplet polymerase activity
property: polymerase ribozyme fitness (log ratio)
Keep the answer to the number alone.

Completed entries (count: 6):
sequenceString	polymerase ribozyme fitness (log ratio)
GACCAAUCUGCCCUCAGAGCUCGAGAACAUCUUCGGAUGCAGAGCAGGCAGGCUUCGGUCGCGCGAUAGCGCCAACGACCUCAACCUCAAAUGCAUCCCACCACAUGAUGAUGCCUGAACAGCCUUAGUUUUUUG [G45C G60C U78A C89A G120C G127A]	-5.17
GACAAAUCUGCCCUCAGAGCUCGAGAACAUCUUCGGAUGCAGAGGAGGCAGGCUUCGGUGGCGCGAUAGCGCCCACGUCCUCAACCUCCAAUGCAUCCCACCACAUGAUGAUGCCUGAAGAGGCUUGGUUUUGUG [C4A A74C C123G U133G]	0.795
GACCAAUCUGCGCUCAGAGCUCGAGAACAUCUGCGGAUGCAGAGGAGGCAGGCUUCGGUGGCGCGAUAGCGCCAAAGUCCUCAACCUCCAAUGCAUCCCCCCACAUGAUGAUGCCUGAAGAGGCUUGGUUUUUUG [C12G U33G C76A A100C C123G]	-5.88
GAUCAAUCUGCCCUCAGAGCUCGAGAACAUCUUCGGAUGGAGAGGAGGCAGGCUUCGGUGGCGCGAUAGCGCCAACGUCCUCAACCUCCAAUGCAUCCCACCACAUGAUGAUGCAUGAAGAGCCUUGGUUUUUUG [C3U C40G C115A]	-1.95
GACCAAUCUGCCCUCAGAGCUCGAGAACAUCUUCGGAUGCAGAGGAGGCAGGCUUUGGUGGCGCGAUAGCGCCAACGUCCUCAACCACCAAUGCAUCCCACCACAUGAUGAUGCCUGAAGAGCCUUGGUUUUUUG [C56U U87A]	-0.176
GACCAAUCUGCCUUCAGAGCUCGAGAACAUCUUCGGAUGCAGAGGAGGCAGCCUUCGGCGGCGCGAUAGCGCCAACGUCCUCAACCUCCAAUGCAUCCCACCAUAUGAUGAUGCCUGAAUAGCCUUAGUUUUUUG [C13U G52C U59C C104U G120U G127A]	-1.32

Measured polymerase ribozyme fitness (log ratio), GACCAAUCUGCCCUCAGAGCUCGAGAACAUCUUCGGCUGCAGAGGAGGCAGGCUUCGGUGGCACGAUAGCGCCAACGUCCUCAACCUCCAAUGCAUCCCACCACAUGAUGAUGCCUGAAGAGCCUUGGUUUUUUG [A37C G63A] : -0.905

Measured polymerase ribozyme fitness (log ratio), GACCAAUCUGCCCUCAGAGCUCGAGAACAUCUUCGGAUGCAGAGGAGGCAGGCUUCGGUGGCUCGAUAGCGCCAACGUCCUCAACCUCCAAUGCAUCCCACCACAUGAUGAUGCCUGAAGUGCCUUGGUUUUUUG [G63U A121U] : 0.749

Measured polymerase ribozyme fitness (log ratio), GACCAAUCUGCCUUCAGAGCUCGAGAACGUCUUCGGAUGCAGAGGAGGCAGGCUUCGGUGGCGCGAUAGCGCCAACGUCCUCGACCUCCAAUGCAUCCCACCACAUGAUGAUGCCUGAAGAGCCUUGGUUUUUUG [C13U A29G A83G] : -1.83

Measured polymerase ribozyme fitness (log ratio), GACCAAUCUGCCCUCAGAGCUCGAGAACAUCUUCGGAUGCAGAGGAUGCAGGCUUCGGUGGCGCGAUAGCGCCAACGUCCUCAACCUCCAAUGCAUCCCACCACAUGAUGAUGCCUGAAGAGCCUGGGUUUUUUG [G47U U126G] : -3.77

Measured polymerase ribozyme fitness (log ratio), GACCAAUCUGCCCUCAGAGCUCGAGAACAUCUUCGGAUGCAGACGAGGCAGGCUUCGGUGGCGCGAUAGCGCCAACGUCCUCAACCUCCAAUGCAUCUCACCACAUGAUGAUGCCUGAAGAGCCUCGGUUUUUUG [G44C C98U U126C] : -3.05

Measured polymerase ribozyme fitness (log ratio), GACCAGUCUGCCCUCAGAGCUCGAGAACAUCUUCGGAUGCAGAGGAGGCAGGCUUCGGUGGCGUGAUAGCGCUAACGUCCUCAACCUCCAAUGCAUCCCACCACAUGAUGAUGCCUCAAGAGCCUUGGUUUUUUG [A6G C64U C73U G117C] : -2.37
